Where do these numbers come from? They come from patent US9855268B2.

Overview of reported IC50 across a group of molecules:
molecular target: GCN2 (Homo sapiens, UniProt Q9P2K8); assay: Cellular assay of GCN2 activity (phospho-eIF2alpha immunocytochemistry after tryptophanol); format: cell-based; set-up: endogenous in cells; host or cells: U2OS; conditions: Human U2OS cells, 2 h compound, 600 μM tryptophanol 30 min
Sequence (Q9P2K8 whole entry): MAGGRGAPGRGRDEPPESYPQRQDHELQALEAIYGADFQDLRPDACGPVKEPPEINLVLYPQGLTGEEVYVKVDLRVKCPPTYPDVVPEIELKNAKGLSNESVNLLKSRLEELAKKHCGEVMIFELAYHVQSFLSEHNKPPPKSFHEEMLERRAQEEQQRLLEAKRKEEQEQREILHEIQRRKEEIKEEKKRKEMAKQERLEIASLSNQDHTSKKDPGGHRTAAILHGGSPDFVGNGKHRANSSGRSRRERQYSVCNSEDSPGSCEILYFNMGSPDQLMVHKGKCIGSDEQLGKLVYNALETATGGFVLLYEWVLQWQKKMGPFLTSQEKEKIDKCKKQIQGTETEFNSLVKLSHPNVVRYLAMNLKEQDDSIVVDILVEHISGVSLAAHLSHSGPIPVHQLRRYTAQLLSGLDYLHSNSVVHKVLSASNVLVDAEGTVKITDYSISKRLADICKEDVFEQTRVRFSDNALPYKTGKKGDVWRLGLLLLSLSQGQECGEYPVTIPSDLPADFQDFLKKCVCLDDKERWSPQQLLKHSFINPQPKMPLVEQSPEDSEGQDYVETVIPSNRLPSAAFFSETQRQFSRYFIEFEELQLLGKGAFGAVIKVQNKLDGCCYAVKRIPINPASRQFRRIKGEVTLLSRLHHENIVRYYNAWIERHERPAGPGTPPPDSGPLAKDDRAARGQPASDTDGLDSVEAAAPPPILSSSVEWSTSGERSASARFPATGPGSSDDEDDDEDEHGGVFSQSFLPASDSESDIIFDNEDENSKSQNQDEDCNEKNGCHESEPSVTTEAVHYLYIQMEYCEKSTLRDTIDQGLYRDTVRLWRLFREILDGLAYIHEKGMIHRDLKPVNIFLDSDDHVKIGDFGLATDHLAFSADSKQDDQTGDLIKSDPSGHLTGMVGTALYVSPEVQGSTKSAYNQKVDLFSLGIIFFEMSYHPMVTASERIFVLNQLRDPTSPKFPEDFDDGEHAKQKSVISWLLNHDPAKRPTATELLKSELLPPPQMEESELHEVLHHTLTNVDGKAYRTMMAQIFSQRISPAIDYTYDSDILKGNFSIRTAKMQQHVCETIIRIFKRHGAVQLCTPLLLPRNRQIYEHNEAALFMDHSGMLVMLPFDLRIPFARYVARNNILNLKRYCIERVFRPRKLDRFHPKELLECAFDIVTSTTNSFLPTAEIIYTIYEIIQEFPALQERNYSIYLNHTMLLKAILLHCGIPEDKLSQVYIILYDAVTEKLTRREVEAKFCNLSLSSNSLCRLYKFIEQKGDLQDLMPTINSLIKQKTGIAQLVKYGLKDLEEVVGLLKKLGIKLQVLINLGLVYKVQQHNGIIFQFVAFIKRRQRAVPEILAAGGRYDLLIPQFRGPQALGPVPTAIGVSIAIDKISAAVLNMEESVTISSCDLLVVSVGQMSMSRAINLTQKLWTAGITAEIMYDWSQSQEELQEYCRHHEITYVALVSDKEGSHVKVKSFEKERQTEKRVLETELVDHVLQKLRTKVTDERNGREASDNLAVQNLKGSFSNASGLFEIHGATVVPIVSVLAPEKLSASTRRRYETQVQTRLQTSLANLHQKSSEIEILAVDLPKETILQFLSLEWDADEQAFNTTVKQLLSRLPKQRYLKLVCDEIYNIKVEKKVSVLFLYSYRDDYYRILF
Quantity: IC50

COCCNC(=O)[C@@H]1CC[C@@H](Nc2ncc3nnn(-c4ccc5nc(C)ccc5c4)c3n2)C1    1 to 5 µM
NC(=O)[C@@H]1CC[C@@H](Nc2ncc3nnn(-c4ccc(OC[C@H](O)C(F)(F)F)cc4)c3n2)C1    1 to 5 µM
O=c1cccnn1CCn1cc(-c2ccc(-n3nnc4cnc(N[C@@H]5CC[C@@H](O)C5)nc43)cc2)cn1    5 to 10 µM
CCOc1ccc(-n2nnc3cnc(N[C@@H]4CC[C@@H](C(=O)NCCOC)C4)nc32)cc1    1 to 5 µM
Cn1cc(-c2ccc(-n3nnc4cnc(N[C@H]5CC[C@H](N)CC5)nc43)cc2)cn1    1 to 5 µM
COc1ccc(-n2nnc3cnc(N[C@@H]4CC[C@@H](C(N)=O)C4)nc32)cc1    1 to 5 µM
CCOc1ccc(-n2nnc3cnc(N[C@@H]4CC[C@@H](C(=O)N(C)CC(C)(C)O)C4)nc32)cc1    5 to 10 µM
CCOc1ccc(-n2nnc3cnc(N[C@@H]4CC[C@@H](C(=O)NCCC(C)(C)O)C4)nc32)cc1    5 to 10 µM
